Target Or Test System: T1, soluble human FcRn (human, UniProt P55899 24-297; P61769 21-119, biotinylated (Sulfo-NHS-LC-Biotin) in the ELISA; amine-coupled to CM5 chip in SPR)
T1 construct: also called shFcRn; biotinylated shFcRn
T1 sequence (P55899 24-297 limits assumed, chain 1 of 2): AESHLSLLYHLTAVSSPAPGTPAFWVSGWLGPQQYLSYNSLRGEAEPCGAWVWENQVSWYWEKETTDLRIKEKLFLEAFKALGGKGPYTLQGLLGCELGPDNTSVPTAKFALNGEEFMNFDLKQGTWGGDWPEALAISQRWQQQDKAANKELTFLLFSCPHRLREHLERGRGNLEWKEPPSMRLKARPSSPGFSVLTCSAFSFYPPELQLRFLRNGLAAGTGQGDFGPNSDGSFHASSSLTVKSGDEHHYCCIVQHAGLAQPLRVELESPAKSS
T1 sequence (P61769 21-119 limits assumed, chain 2 of 2): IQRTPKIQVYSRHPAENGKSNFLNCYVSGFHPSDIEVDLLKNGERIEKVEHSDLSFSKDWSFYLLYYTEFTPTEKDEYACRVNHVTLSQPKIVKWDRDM
Assay Method Text: ELISA, competitor human IgG
Bridge positions count the residues as written; N and C are the ends. Square brackets hold non-standard residues; d marks the D form. Ends that are not written are not given here. Pen = CC(C)(S)[C@H](N)C(=O)O
Provide the recorded pIC50 for the entries that follow.
One number for each entry, as −log10 of the molar value.

Binder	pIC50
QRFXTGHFRGLYPCNGP (Pen at 4; D-Arg at 9; disulfide; C-terminal amide) [Peptide No. 49]	5.39
QRF[Pen]TGHF[dF][dA]LYPCNGP-NH2 (disulfide 4-14; N-terminus assumed; SMILES CC(C)C[C@@H]1NC(=O)[C@@H](C)NC(=O)[C@@H](Cc2ccccc2)NC(=O)[C@H](Cc2ccccc2)NC(=O)[C@H](Cc2c[nH]cn2)NC(=O)CNC(=O)[C@H]([C@@H](C)O)NC(=O)[C@@H](NC(=O)[C@H](Cc2ccccc2)NC(=O)[C@H](CCCNC(=N)N)NC(=O)[C@@H](N)CCC(N)=O)C(C)(C)SSC[C@@H](C(=O)N[C@@H](CC(N)=O)C(=O)NCC(=O)N2CCC[C@H]2C(N)=O)NC(=O)[C@@H]2CCCN2C(=O)[C@H](Cc2ccc(O)cc2)NC1=O) [Peptide No. 151]	5.37
QRFXTGHFGILYPCNGP (Pen at 4; D-Ile at 10; disulfide; C-terminal amide) [Peptide No. 43]	4.74
QRFXTGHFGGLYPCNGP (Pen (L-penicillamine) at 4; disulfide; C-terminal amide) [Peptide No. 32]	5.70

API: the following record is the query input.
Q: What does the record list as pIC50 for QRFXTGHFPGLYPCNGP (Pen at 4; D-Pro at 9; disulfide; C-terminal amide) [Peptide No. 48] ?
Result: 5.30
